Target: Acetylcholinesterase (Electrophorus electricus)
Experiment: Inhibition of Electrophorus electricus AChE at 10 uM pre-incubated for 5 mins before acetylthiocholine iodide substrate addition and measured after 2 mins
Binary classification by inhibition, with 20% as an inclusive lower bound for t; all other cases are f.

[[record]]
compound_string = "Cc1ccc2cc(NC(=O)Cn3c(-c4nonc4N)nc4ccccc43)ccc2n1"
qualitative_label = "f"

[[record]]
compound_string = "CCc1noc(-c2cnc3nc(C)ccc3c2Nc2ccc3c(c2)OCCO3)n1"
qualitative_label = "t"

[[record]]
compound_string = "COc1ccc(C2=C(Nc3ccc4oc5ccccc5c4c3)c3ccccc3C2=O)cc1"
qualitative_label = "t"

[[record]]
compound_string = "Cc1ccc(-c2nc3ccccc3o2)cc1NCc1cc(Cc2ccccc2)ccc1O"
qualitative_label = "f"

[[record]]
compound_string = "Cc1ccc(OCc2nc(CN(CC(C)C)C(=O)c3ccc4c(c3)OCO4)cs2)cc1"
qualitative_label = "f"

[[record]]
compound_string = "CN(CCc1noc(-c2cc3ccccc3[nH]2)n1)C(=O)c1ccc(C(C)(C)C)cc1"
qualitative_label = "t"

[[record]]
compound_string = "COc1cc2c(cc1NC(=O)C(=O)c1c(-c3ccccc3)[nH]c3ccccc13)oc1ccccc12"
qualitative_label = "f"

[[record]]
compound_string = "COc1ccc(-c2noc(CN(C(=O)c3ccc4c(c3)OCO4)C3CCCCC3)n2)cc1"
qualitative_label = "f"

[[record]]
compound_string = "CN(CCc1noc(-c2cc3ccccc3[nH]2)n1)C(=O)c1ccc(N(C)C)cc1"
qualitative_label = "t"

[[record]]
compound_string = "CCCN(Cc1csc(COc2ccc(C)cc2)n1)C(=O)c1ccc2c(c1)OCO2"
qualitative_label = "f"

[[record]]
compound_string = "COc1ccc(-c2cccc(-n3cncc3C(=O)N3Cc4ccccc4C3)c2)cc1OC"
qualitative_label = "f"

[[record]]
compound_string = "O=C(c1ccc(C(F)(F)F)cc1)N(CCc1nc(-c2ccc(C(F)(F)F)cc2)no1)Cc1ccco1"
qualitative_label = "f"

[[record]]
compound_string = "COCCN(Cc1csc(COc2ccc(C)cc2)n1)C(=O)c1ccc(OC)cc1"
qualitative_label = "f"

